Hello, the source for this data is PubChem BioAssay AID540256, in case you need it.

assay_protocol: qHTS for Inhibitors of binding or entry into cells for Lassa Virus; further: nearly all actives have a fitted effect of over 50% in size; further: potency means the concentration at half of the fitted maximal effect
run_parameters: Lassa virus pseudotype entry inhibition, cell reporter; series mostly up to 37.9 µM
Screen size: about 300,000 compounds; about 3,700 (1.2%) were called active. Roughly 20% stayed inconclusive and do not appear here. Shown is part of a subset that was picked to be rich in actives.
readout_label: Potency

Use the examples below as a reference point.
COc1ccc(Cc2nc3ccc(C(=O)NCC4CCOCC4)cc3o2)cc1OC: inactive
CCOC(=O)c1ccc(NC(=O)C2CCN(S(=O)(=O)c3ccc4c(c3)CCCC(=O)N4)CC2)cc1: inactive
O=C(COC(=O)c1n[nH]c2ccccc12)Nc1ccccc1Br: inactive
CSc1ncccc1C(=O)NCC(c1ccco1)N1CCCCC1 (stereo not given): inactive
C/C(=N\NC(=O)c1ccccc1F)c1ccccn1: 7.08 µM (active)

Provide Potency for all items below, preserving their order.
1. Cc1ccc(S(=O)(=O)N2CCCCC2)cc1C(=O)N(C)CC(=O)Nc1cccc(F)c1
2. O=C(Nc1ccc(Cl)c(Cl)c1)c1ccccc1NC(=O)C1CC=CCC1C(=O)O (stereo not given)
3. COc1cc2c(cc1OC)CN(C(C)C(=O)Nc1cccc(S(=O)(=O)N3CCOCC3)c1)CC2 (stereo not given)
4. O=C(COC(=O)c1cnccn1)Nc1ccc(Cl)cc1C(F)(F)F
5. CC(=NNC(=S)N1CCCCCC1)c1ccccn1

inactive
inactive
inactive
inactive
0.316 µM (active)

Provide Potency for all items below, preserving their order.
1. O=C1NCC(Nc2ccccc2)C(=O)N1 (stereo not given)
2. Oc1cc2c(cc1O)CN(C(=S)NCCc1ccc(Cl)cc1)CCC2
3. COc1ccc(C(=O)Nc2ccccc2C(=O)NCc2ccco2)cc1
4. CCNC(=S)N1CCN(c2ncccn2)CC1
5. CN(C)CCCn1c(N)c(C#N)c2nc(C#N)c(C#N)nc21
6. Cc1ccc(CSCC(=O)N(C)CC(=O)Nc2ccc(C)cc2)cc1
7. O=C(CCNC(=O)c1ccccc1Cl)NN=Cc1ccco1
8. CN(C(=O)CSc1cccc[n+]1[O-])C1CCCCC1

inactive
11.6 µM (active)
inactive
inactive
15.8 µM (active)
inactive
inactive
inactive

Provide Potency for all items below, preserving their order.
1. CC(=O)Nc1cccc(/C(C)=N/NC(=O)c2ccccc2Cl)c1
2. C=CCNC(=O)C1CC2c3ccccc3C1c1ccccc12 (stereo not given)
3. O=C(Nc1ncccc1O)c1ccc(C(=O)c2ccccc2)cc1

1. inactive
2. inactive
3. inactive
